# System: WaGa
# run-description: qHTS assay to identify novel small-molecules to repurpose for Merkel cell carcinoma treatment (AID 1296009); note: nearly all actives have a fitted effect of over 60% in size
# settings: MCC and control cell lines, CellTiter-Glo viability, 72 h; series mostly up to 46 µM
Results filed as inconclusive are left out. Activity calls are given as the source filed them. Calls come from the whole dose curve; as a rule, active = well fitted inhibition curve with a large enough effect; inconclusive = small, poorly fitted or top-dose-only effect; inactive = flat fitted curve, though single readings scatter.
Respond with a class label; see active, inactive

Write down the call the test reported for this molecule. Item: CCCCCCCCCCCC(CC1OC(=O)C1CCCCCC)OC(=O)C(CC(C)C)NC=O (centres undefined)
inactive

Write down the call the test reported for this molecule. Item: "COc1cccc2c1C(=O)c1c(O)c3c(c(O)c1C2=O)C[C@@](O)(C(=O)CO)C[C@H]3O[C@H]1C[C@H](N)[C@H](O)[C@H](C)O1"
active

Write down the call the test reported for this molecule. Item: "C[C@@H](Cc1cc2c(c(C(N)=O)c1)N(CCCO)CC2)NCCOc1ccccc1OCC(F)(F)F"
inactive

Write down the call the test reported for this molecule. Item: "CCN(CC)CCNC(=O)c1c(C)[nH]c(C=C2C(=O)Nc3ccc(F)cc32)c1C"
active

Write down the call the test reported for this molecule. Item: "c1coc(CNc2ncnc3nc[nH]c23)c1"
inactive

Write down the call the test reported for this molecule. Item: "COc1ccnc2[nH]cc(C(=O)C(=O)N3CCN(C(=O)c4ccccc4)C[C@@H]3C)c12"
inactive

Write down the call the test reported for this molecule. Item: "C[C@H](NCc1ccc2c(c1)nc(NC(=O)c1ccc(-c3cn[nH]c3)s1)n2CCc1ccccc1)C(C)(C)C"
active

Write down the call the test reported for this molecule. Item: "CCn1c(=O)c2c(nc(C=Cc3ccc(OC)c(OC)c3)n2C)n(CC)c1=O"
inactive

Write down the call the test reported for this molecule. Item: "NC(=O)Nc1sc(-c2ccc(F)cc2)cc1C(N)=O"
active

###

# Tested on: P93_24
# run-description: qHTS profiling for inhibitors of Plasmodium falciparum proliferation (AID 504749); note: nearly all actives have a fitted effect of over 60% in size; note: potency is the fitted concentration of half-maximal effect
# settings: P. falciparum in erythrocytes, SYBR Green DNA, 72 h; series mostly up to 28.7 µM
Inconclusive results are not listed. Active and inactive are the calls of the source. Calls come from the whole dose curve; as a rule, active = well fitted inhibition curve with a large enough effect; inconclusive = small, poorly fitted or top-dose-only effect; inactive = flat fitted curve, though single readings scatter.
property-name: Potency

Check out these entries, answers already filled in.
{"columns": ["compound", "experimental-system", "Potency"],
 "data": [
  ["CCC(C(=O)O)C1CCC(C)C(C(C)C(O)C(C)C(=O)C(CC)C2OC3(C=CC(O)[C@@]4(CC[C@](C)(C5CC[C@@](O)(CC)C(C)O5)O4)O3)C(C)CC2C)O1 (stereo not given in full)", "P93_24", "891 nM (active)"],
  ["Nc1nc2c(c(=O)[nH]1)N(C=O)[C@H](CNc1ccc(C(=O)N[C@@H](CCC(=O)O)C(=O)O)cc1)CN2", "P93_24", "inactive"],
  ["COc1cccc2c1C(=O)c1c(O)c3c(c(O)c1C2=O)C[C@@](O)(C(=O)CO)C[C@@H]3O[C@H]1C[C@H](N)[C@H](OC2CCCCO2)[C@H](C)O1 (stereo not given in full)", "P93_24", "2240 nM (active)"],
  ["OCC(O)C(O)C(O)CO (stereo not given)", "P93_24", "inactive"]
]}

Field: next compound
Entry CCCCCCCCCCCC(CC1OC(=O)C1CCCCCC)OC(=O)C(CC(C)C)NC=O (stereo not given) : reported Potency = ?
891 nM (active)

###

# run-description: Quantitative High-Throughput drug screen in 47 multiple myeloma cell lines against the NCATS MIPE library collection: AMO1_DSMZ cell viability assay (AID 1918927; note: nearly all actives have a fitted effect of over 30% in size)
# settings: AMO1 myeloma cells viability, CellTiter-Glo ATP luminescence, 48 h; series mostly up to 45.8 µM
Records with an inconclusive call do not appear. Activity calls are given as the source filed them. Calls follow the shape of the dose curve; as a rule, active = well fitted cell-killing curve with a large enough effect; inconclusive = small, poorly fitted or top-dose-only effect, or effect the other way; inactive = no such curve, though single readings can be large or run the other way. Starred links: 1 amine or outer side, 2 acyl side, 3 side chain; linkers in the order of their positions; H or OH if unused. Positions of bridges follow the written chain, without caps; N, C: chain ends. Non-standard residues stand in square brackets, D forms with d. Residues, ends and D or L forms follow the SMILES beside them. Chains are numbered I, II in the order given. Actinocin(9to1) = Cc1c2oc3c(C)ccc(C(=O)[*:1])c3nc-2c(C(=O)[*:2])c(N)c1=O; NMeV = CN[CH](C(=O)O)C(C)C; Sar = CNCC(=O)O
Respond with a class label; see label 1 for active, label 0 for inactive

Write down the call the test reported for this compound. Item: "CCCc1nc(C(C)(C)O)c(C(=O)O)n1Cc1ccc(-c2ccccc2-c2nn[nH]n2)cc1"
label 0

Write down the call the test reported for this compound. Item: CCOC(=O)C1=C(C)NC(=S)NC1c1cccc(O)c1 (centres undefined)
label 1

Write down the call the test reported for this compound. Item: "CCCCCN=C(N)NN=Cc1c[nH]c2ccc(OC)cc12"
label 1

Write down the call the test reported for this compound. Item: CC(C(C)N1CC(=O)NC(=O)C1)N1CC(=O)NC(=O)C1 (centres undefined)
label 1

Write down the call the test reported for this compound. Item: "C[C@H]1COc2c(N3CCN(C)CC3)c(F)cc3c(=O)c(C(=O)O)cn1c23"
label 0

Write down the call the test reported for this compound. Item: "FC(F)(F)c1ccc(Nc2nc3ccc(Oc4ccnc(-c5ncc(C(F)(F)F)[nH]5)c4)cc3[nH]2)cc1"
label 1

Write down the call the test reported for this compound. Item: Cc1c2oc3c(C)ccc(C(=O)NC4C(=O)NC(C(C)C)C(=O)N5CCCC5C(=O)N(C)CC(=O)N(C)C(C(C)C)C(=O)OC4C)c3nc-2c(C(=O)NC2C(=O)NC(C(C)C)C(=O)N3CCCC3C(=O)N(C)CC(=O)N(C)C(C(C)C)C(=O)OC2C)c(N)c1=O (centres undefined) (I: TVP[Sar][NMeV] / II: TVP[Sar][NMeV]; ester I:1-I:C, II:1-II:C; linker I:N-II:N via Actinocin(9to1); configuration not given here)
label 0

Write down the call the test reported for this compound. Item: "COc1cc2ncnc(Nc3cccc(Br)c3)c2cc1OC"
label 1

Write down the call the test reported for this compound. Item: "CCc1ccc(C(=O)Nc2cc(CN3CCN(C)CC3)cc(C(F)(F)F)c2)cc1C#Cc1cnc2ccnn2c1"
label 1

Write down the call the test reported for this compound. Item: "CC[C@H]1OC(=O)[C@H](C)[C@@H](O[C@H]2C[C@@](C)(OC)[C@@H](O)[C@H](C)O2)[C@H](C)[C@@H](O[C@@H]2O[C@H](C)C[C@H](N(C)C)[C@@H]2O)[C@](C)(OC)C[C@@H](C)C(=O)[C@H](C)[C@@H](O)[C@]1(C)O"
label 0

Write down the call the test reported for this compound. Item: "NC(=O)Nc1cc(-c2ccc(CN3CCOCC3)cc2)sc1C(N)=O"
label 1

Write down the call the test reported for this compound. Item: C=C[C@@H]1CN2CCC1C[C@H]2[C@H](O)c1ccnc2ccc(OC)cc12 (some centres undefined)
label 0

Write down the call the test reported for this compound. Item: "Cc1[nH]c(C=C2C(=O)Nc3ccccc32)c(C)c1CCC(=O)O"
label 1

Write down the call the test reported for this compound. Item: "C[C@H](NC(=O)Cc1cc(F)cc(F)c1)C(=O)N[C@H](C(=O)OC(C)(C)C)c1ccccc1"
label 0

Write down the call the test reported for this compound. Item: "C=C1C[C@@]2(O)O[C@@]3(C[C@H]2C(C)C)[C@H](C)CC[C@H]13"
label 0

Write down the call the test reported for this compound. Item: "C=CC(=O)N1CCc2ccc(-n3c(=O)ccc4cnc5ccc(-c6cnn(C)c6)cc5c43)cc21"
label 1

Write down the call the test reported for this compound. Item: CC(O)(C#Cc1ccc2c(c1)N(c1nc(N)ncc1Cl)CC2)c1nccs1 (centres undefined)
label 1

Write down the call the test reported for this compound. Item: "COc1cc(OC)c(C=CS(=O)(=O)Cc2ccc(OC)c(NCC(=O)O)c2)c(OC)c1"
label 1

Write down the call the test reported for this compound. Item: "N#CC(=Cc1ccc(O)c(O)c1)C(=O)NCc1ccccc1"
label 0

###

# experimental-system: ATP-dependent 6-phosphofructokinase (Trypanosoma brucei brucei)
# run-description: qHTS Assay to Find Inhibitors of T. brucei phosphofructokinase: hit validation (AID 492961);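 note: luminescence reports ADP formed as PFK phosphorylates fructose-6-phosphate with ATP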
# settings: T. brucei PFK, ADP-Glo luminescence; series mostly up to 51.4 µM
Records with an inconclusive call do not appear. Active and inactive are the calls of the source. Calls come from the whole dose curve; as a rule, active = well fitted inhibition curve with a large enough effect; inconclusive = small, poorly fitted or top-dose-only effect, or effect the other way; inactive = flat fitted curve, though single readings scatter.
property-name: outcome

Check out these entries, answers already filled in.
{"columns": ["compound", "experimental-value"],
 "data": [
  ["CCCCCCCCCCCC(CC1OC(=O)C1CCCCCC)OC(=O)C(CC(C)C)NC=O (stereo not given)", "inactive"],
  ["COc1ccc([C@@H]2CNC(=O)C2)cc1OC1CCCC1", "inactive"],
  ["COc1ccc2c(c1OC)C(=O)OC2[C@H]1c2c(cc3c(c2OC)OCO3)CCN1C (stereo not given in full)", "inactive"],
  ["Nc1nc2c(c(=O)[nH]1)N(C=O)[C@H](CNc1ccc(C(=O)N[C@@H](CCC(=O)O)C(=O)O)cc1)CN2", "inactive"]
]}

Field: next compound
Entry CCC(C(=O)O)C1CCC(C)C(C(C)C(O)C(C)C(=O)C(CC)C2OC3(C=CC(O)[C@@]4(CC[C@](C)(C5CC[C@@](O)(CC)C(C)O5)O4)O3)C(C)CC2C)O1 (stereo not given in full) : reported outcome = ?
inactive
